Where do the numbers come from? From PubChem BioAssay (NCI).

Tested on: UACC-62 melanoma
Protocol notes: NCI-60 one-dose screen, 48 h (100 = growth as untreated, 0 = no growth, -100 = all killed)
Run conditions: 10 µM unless noted
Compounds without any hit were thinned out: in the full panel of roughly 83,000, 20% have a hit.
Exercise: for every item that follows, state its recorded growth.
Value expressed in %; do not type the unit.

The reported growth of the compound O=C(Cc1ccc(/C=C/C(=O)c2ncc[nH]2)cc1)Nc1cc(C(F)(F)F)cc(C(F)(F)F)c1 was 80.9

The reported growth of the compound C/C(=N\O)c1ccc(NC(=O)CSc2nnc(-c3cc(-c4ccc(S(N)(=O)=O)cc4)nc4ccccc34)n2-c2ccccc2)cc1 was 62.4

The reported growth of the compound COc1ccc(N2CCC(=S)NC2=S)cc1 was 90.3

The reported growth of the compound COc1cccc(-c2cc(-c3cccc(Cl)c3)c(C#N)c(=O)[nH]2)c1 was 42.4

The reported growth of the compound Cc1cn(-c2cc(NC(=O)c3cncc(C#Cc4c(N)ncc5ccc(F)cc45)c3)cc(C(F)(F)F)c2)cn1 was 33.8

The reported growth of the compound Cc1nc2c(=O)nc3s/c(=C\c4ccco4)c(=O)n3c2nc1C was 92.4

The reported growth of the compound Cc1ccc2c(-n3nc(C#N)c(C#N)c3N)cc(=O)[nH]c2c1 was 80.2

The reported growth of the compound CCN1CCN(CCNc2nccc(-c3c(-c4ccc(F)c(OC)c4)nc4sccn34)n2)S1(=O)=O was 15.5

The reported growth of the compound Cc1ccc2c(-c3nnc(N)s3)cc(=O)oc2c1C was 94.8
